System: OVCAR-4 ovarian
assay: NCI tumour cell line growth inhibition, 48 h
quantity kind: TGI

compound	reported result
C/C(=N\O)c1cccc(Nc2cc(-c3ccccc3)nc3c(O)cccc23)c1	37.4 µM
CSC1=C(C#N)C(=O)N(c2ccc(C)cc2)C(=O)C1C#N (stereo not given)	> 100 µM
CCOC(=O)/C(=C/c1ccccc1Br)P(=O)(OCC)OCC	4.2 µM
COc1cc2cc3c4cc(OC)c(OC)cc4cc[n+]3c(C)c2cc1OC	> 100 µM
O=Cc1ccc(-c2ccc(-c3ccc(C=O)o3)[se]2)o1	> 100 µM
COc1ccc(-c2coc3cc(O)cc(O)c3c2=O)cc1	> 10 µM
[N-]=[N+]=CC(=O)OCC1NC(=O)C(COC(=O)C=[N+]=[N-])NC1=O (stereo not given)	> 100 µM
C=C(COC(C)=O)CC(/C=C(\C)CC/C=C(\C)CO)OC(C)=O (stereo not given)	> 100 µM
CCCCCCCCCCCCCCCC(=O)Nc1ccn(C2CCC(COP(=O)(O)OCC3OC(n4cc(F)c(=O)[nH]c4=O)CC3OC(C)=O)O2)c(=O)n1 (stereo not given)	> 86.5 µM
Cc1cnc2c(c1)C(=O)N(c1ccc([N+](=O)[O-])cc1)S2(=O)=O	> 100 µM
C=CC(=O)NCNC(=O)C=C	> 100 µM
C#CCn1c(=O)c2cccnc2n(CC#C)c1=O	> 100 µM
O=C(Cc1ccccc1)N/N=C(/c1nc2ccc([N+](=O)[O-])cc2[nH]c1=O)C(O)c1ccccc1Cl (stereo not given)	> 100 µM
CCCCN(CC)CCCCCCCCCCN1CCCc2cc(OC)ccc21	19.6 µM
CC(=O)Oc1c(Br)ccc2cc(C(Br)Br)c(C(=O)c3ccccc3)nc12	21.7 µM
CO[C@H]1O[C@@H]2OC3(C)CCC4[C@H](C)CCC([C@H]1C)[C@]42OO3 (stereo not given in full)	> 100 µM
CN1C(=O)CN2C(Cl)(Cl)C2(c2ccccc2)c2cc(Cl)ccc21 (stereo not given)	> 100 µM
O=C1Oc2cc3c(c4cccc1c24)OCN(c1ccccc1)C3	> 100 µM
CCN1C(=O)N(CC)C2C1NC(=S)N2/N=C/C=C/c1ccccc1OC (stereo not given)	> 100 µM
O=C1C=CC(=O)N1c1ccc(I)cc1	60.2 µM

----------
This section presents compounds with their documented GI50 values.
Test system: HCT-116 colon
assay: NCI tumour cell line growth inhibition, 48 h

compound	GI50
COc1ccc(/C=C/C(=O)c2ccc(Nc3nc(Nc4ccc(F)cc4)nc(Nc4ccc(Cl)cc4)n3)cc2)cc1	39.9 µM
Cn1c(NCC(CN2CCCC2)OC(=O)c2ccccc2)cc(=O)n(C)c1=O (stereo not given)	> 100 µM
Brc1ccc(Nc2nc3ccccc3nc2Nc2ccc(Br)cc2)cc1	0.418 µM
CC(=O)OCC1OC([Se-])C(OC(C)=O)C(OC(C)=O)C1OC(C)=O.N#CCC[PH+](CCC#N)CCC#N.[Au+] (stereo not given)	3.85 µM
N#C/C(=C\c1ccc(F)cc1)n1nc2cccc(F)c2n1	3.57 µM
CCCCCCc1cc2cc(-c3csc(/C=C/c4ccccc4)n3)c(=O)oc2cc1O	3.39 µM
FC(F)(F)c1ccc(-c2ncc(-c3ccc(C(F)(F)F)cc3)c(NCc3cc(C(F)(F)F)cc(C(F)(F)F)c3)n2)cc1	3.84 µM
Cc1ccc(NC(=O)c2nc(S(C)(=O)=O)oc2-c2ccc(F)cc2)cc1Nc1ccc2ncn(C)c(=O)c2c1	1.75 µM
CCCCN(CC)CCCCCCCCCCN1CCCc2cc(OC)ccc21	1.73 µM
CCN(CC)CC(O)COc1c(Br)c(Br)c(Br)c2c1OC(C)(C)C2 (stereo not given)	3.85 µM

----------
This section presents compounds with their documented GI50 values.
System: SW-620 colon
assay: NCI tumour cell line growth inhibition, 48 h

compound	GI50
O=C(Cc1ccc(Nc2ccnc(C(F)(F)F)c2)cc1)N/N=C/c1ccccc1O	3020 nM
CCCCCCc1cc2cc(-c3csc(/C=C/c4ccccc4)n3)c(=O)oc2cc1O	5600 nM
NCCCNc1nc2ccc(Cl)cc2c2c(=O)c3cc(F)ccc3sc12	1740 nM
O=C1c2cccnc2C(=O)c2c1c(C(=O)OCCc1ccccn1)c1ccccn21	< 10 nM
O=C(NS(=O)(=O)c1ccc(NC[C@H]2COCCO2)c([N+](=O)[O-])c1)c1ccc(N2CCN(CC3=C(c4ccc(Cl)cc4)CC4(CCC4)CC3)CC2)cc1Oc1cnc2[nH]ccc2c1	2470 nM
CCCOc1ccc(/C=N/Nc2cc(C)nc3ccc(Cl)cc23)cc1	1960 nM
COc1cc(/C=C/C(=O)c2c(C)nc3ccccc3c2C)ccc1OCCCCOc1cc2c(cc1OC)C(=O)N1CCC[C@H]1C=N2	203 nM
COc1ccc(/C=C/C(=O)c2ccc(Nc3nc(Nc4ccc(F)cc4)nc(Nc4ccc(Cl)cc4)n3)cc2)cc1	> 100000 nM
O=C(O)c1cn(C2CC2)c2cc(N3CCN(C(=O)Nc4nc(-c5ccc(Br)cc5)cs4)CC3)c(F)cc2c1=O	4130 nM
N#Cc1c2ccccc2c2nnc3ccc(C(F)(F)F)cc3n12	66700 nM
Cc1cc(C(O)(c2ccc(Nc3ccccc3)cc2)c2ccc(Nc3ccc(S(=O)(=O)O)cc3)cc2)ccc1N (stereo unspecified)	818 nM

----------
Test system: KM12 colon
assay: NCI tumour cell line growth inhibition, 48 h
quantity kind: TGI (µM)

molecule	quantity kind	scale unit	reported result
CC(C)(CN1CCCCC1)C(=O)CC(SCCN)c1ccc(Cl)cc1 (configuration not stated)	TGI	µM	5.23
CCCCCCCc1cscc1-c1cscc1Br	TGI	µM	80.7
O=C(NCCc1ccccc1)c1cc(/C=C/c2cc(O)ccc2O)ccc1O	TGI	µM	24.6
CC(C)OCc1cc(CN2CCN(c3cccc(Cl)c3)CC2)c(O)c2ncccc12	TGI	µM	13.2
CCOC(=O)/C(=C/c1ccccc1Br)P(=O)(OCC)OCC	TGI	µM	4.52
C=C1CC(C)(COc2cc(=O)oc3ccccc23)OC1=O (configuration not stated)	TGI	µM	27.3
O=C1/C(=C\c2ccccc2)CN(C(=O)c2ccccc2)C/C1=C\c1ccccc1	TGI	µM	3.4
Cc1cc(C)c(S(=O)(=O)N(CCCN)OCCON(CCCN)S(=O)(=O)c2c(C)cc(C)cc2C)c(C)c1	TGI	µM	4.49
CCCOc1ccc(/C=N/Nc2cc(C)nc3ccc(Cl)cc23)cc1	TGI	µM	3.35
O=c1[nH]c2ccccc2n2cc3ccccc3c12	TGI	µM	40

----------
Test system: SF-268 CNS
assay: NCI tumour cell line growth inhibition, 48 h

molecule	TGI
O=C1Oc2cc3c(c4cccc1c24)OCN(c1ccccc1)C3	> 100 µM
C=CC(OC(=O)C(C)C)c1ccc(OC(=O)C(C)C)cc1 (stereo not given)	62.2 µM
COc1ccc2c(c1)-c1nc(=O)n(CCCN(C)C)c3ccc([N+](=O)[O-])c(c13)N2	17.8 µM
O=C(N/C=C/C=C/Sc1ccccc1)OCc1ccccc1	34.2 µM
O=C1CCCCC1C(O)(C(F)(F)F)C(F)(F)Cl (stereo not given)	> 10 µM
Cc1cnc2c(c1)C(=O)N(c1ccc([N+](=O)[O-])cc1)S2(=O)=O	> 100 µM
Cc1cc2c(cc1C)[n+](=O)c(C(=O)CC(=O)C(=O)Nc1ccccc1C(C)C)c(C)n2[O-]	> 100 µM
COc1ccc(NS(=O)c2c(C)cc(C)cc2C)cc1 (stereo not given)	> 100 µM
COc1cc(/C=C/C(=O)c2c(C)nc3ccccc3c2C)ccc1OCCCCOc1cc2c(cc1OC)C(=O)N1CCC[C@H]1C=N2	1.04 µM
C1=C(c2ccccc2)O[C@H](COCc2ccccc2)C(OCc2ccccc2)[C@@H]1OCc1ccccc1 (stereo not given in full)	> 10 µM

----------
Tested on: COLO 205 colon
assay: NCI tumour cell line growth inhibition, 48 h
This section presents compounds with their documented TGI values.

compound	scale unit	TGI
O=C(Cc1ccc(Nc2ccnc(C(F)(F)F)c2)cc1)N/N=C/c1ccccc1O	µM	22.8
C=C1CC(C)(COc2cc(=O)oc3ccccc23)OC1=O (stereo not drawn)	µM	5.81
O=C(O)C1=CN(c2ccncc2)C(c2ccco2)=CC1c1ccccc1[N+](=O)[O-] (stereo not drawn)	µM	32.9
O=C(Oc1c(Br)cc(Br)cc1C(=O)Oc1ccccc1)C(=O)Oc1c(Br)cc(Br)cc1C(=O)Oc1ccccc1	µM	51.8
Fc1ccc(C2SCc3nc4ccccc4n32)cc1F (stereo not drawn)	µM	90.3
CC[C@@H]1CC[C@@H]2[C@H](CC[C@]3(C)[C@@H](OC(C)=O)CC[C@@H]23)[C@H]1C(=O)OC	µM	29.5
COc1cc2c3c(n(CCCN4CCCNCC4)c(=O)c2cc1OC)-c1cc2c(cc1C3=O)OCO2	µM	10.8
COc1ccc2c(c1)-c1nc(=O)n(CCCN(C)C)c3ccc([N+](=O)[O-])c(c13)N2	µM	18.4
Cc1cc(C(O)(c2ccc(Nc3ccccc3)cc2)c2ccc(Nc3ccc(S(=O)(=O)O)cc3)cc2)ccc1N (stereo not drawn)	µM	2.8
CCN1C(=O)N(CC)C2C1NC(=S)N2/N=C/C=C/c1ccccc1OC (stereo not drawn)	µM	0.7
CC(C)OCc1cc(CN2CCN(c3cccc(Cl)c3)CC2)c(O)c2ncccc12	µM	19.2
CCOc1cc(/C=C/C(=O)C(C(=O)/C=C/c2ccc(OC(=O)CNc3nnc(C)s3)c(OCC)c2)C(=O)CNc2nnc(C)s2)ccc1OC(=O)CNc1nnc(C)s1	µM	3.54
C(=N\NC1=NCCN1)/c1cccc2cc3ccncc3nc12	µM	15.5
CCCCCCCCCCCCCCCC(=O)Nc1ccn(C2CCC(COP(=O)(O)OCC3OC(n4cc(F)c(=O)[nH]c4=O)CC3OC(C)=O)O2)c(=O)n1 (stereo not drawn)	µM	28.5
O=C(CCN1CCC(CCO)CC1)Nc1ccc2c(c1)C(=O)c1ccc(NC(=O)CCN3CCC(CCO)CC3)cc1C2=O	µM	64.6
CC(C)(CN1CCCCC1)C(=O)CC(SCCN)c1ccc(Cl)cc1 (stereo not drawn)	µM	3.24
